experiment: Aerosol exposure study of tacrolimus in rats, blood and lung pharmacokinetics; assay type: in vivo, male Sprague-dawley rats; details: male, Sprague-Dawley, inhaled or intranasal; blood; High Inhalation 0.256 mg/kg, rat
endpoint-name: AUC(0-t)
Please answer using a numeric value trailed by its unit.

Q: I have this molecule here, C=CC[C@@H]1/C=C(\C)C[C@H](C)C[C@H](OC)[C@H]2O[C@@](O)(C(=O)C(=O)N3CCCC[C@H]3C(=O)O[C@H](/C(C)=C/[C@@H]3CC[C@@H](O)[C@H](OC)C3)[C@H](C)[C@@H](O)CC1=O)[C@H](C)C[C@@H]2OC , and I need its recorded AUC(0-t).
A: 194 ng·h/mL
